quantity.kind: melting point (°C)

* CN1CCC(OC2c3ccccc3CCn3c2nc(-c2ccccc2)c3C(=O)O)CC1 (stereo not given) | 185
* BrCc1ccc2nc(-c3ccccc3)oc2c1 | 162

----------
quantity.kind: melting point

• N#Cc1c(N2CCN(C(=O)c3cccs3)CC2)c2sccc2n(CC(=O)c2ccccc2)c1=O = 300 °C
• CCCCCCCCCCCCCCOc1ccc(CC(=O)Nc2cccc(-c3nccs3)c2)cc1 = 128 to 131 °C
• O=C1c2c(Cl)cccc2-n2cnc(-c3nc(C4CC4)no3)c2[C@@H]2CCN12 = 140 to 142 °C
• O=C1COc2cccc3nc4c(c(c23)N1Cc1ccccc1)CCCC4 = 166 to 168 °C
• CCN1CCc2cc(OC)c(OC)cc2C1C1CC(C(=O)O)CCC12c1cc(OC)c(OC)cc1CCN2CC (stereo not given) = 124 to 126 °C

----------
quantity.kind: melting point

- COC(=O)NNc1cc(C)c(Cl)c2c1OC(C)C2 (stereo not given): 157 to 160 °C
- COc1cc2occ(C(=O)Nc3cccnc3)c2cc1Br: 210 to 212 °C
- COc1ccc(-c2cnc(N)c(Sc3cc(C(F)(F)F)cc(C(F)(F)F)c3)n2)cc1: 136 to 138 °C
- OC(c1ccccc1Cl)C(c1ccccc1Cl)n1ccnc1 (stereo not given): 62 to 68 °C
- Cc1ccn2cc(CCc3ccc4nc(N)oc4c3)nc2c1: 262 to 264 °C
- COC(=O)C1=C(O)C(OC)(OC)C(O)=C(C(=O)OC)C1: 143 to 144 °C
- COC(=O)c1cc(C(=O)Nc2nccs2)c2cc(Cc3ccc(F)cc3)cnc2c1O: 258 to 259 °C
- COc1cc2ncnc(NC3=CC(=O)C4(C(C)C)OC4C3=O)c2cc1OC (stereo not given): 188 to 190 °C
- CCCOc1ccccc1-c1nc2c(CCCCc3ccccc3)cccc2c(=O)[nH]1: 82 °C
- CNC1Oc2cc(Cl)cc(-c3cc(F)ccc3F)c2O1 (stereo not given): > 250 °C

----------
quantity.kind: melting point

* Brc1ccc(N2CCC3(CCNCC3)CC2)nc1 | 103 to 105 °C
* COC(=O)c1csc(-c2ccc(C#N)cc2)n1 | 107 to 108 °C
* O=c1oc(OCCBr)c(Cl)c2ccc(NC(=S)Nc3ccccc3)cc12 | 157 to 158 °C
* O=C(O)CCSC(c1ccccc1CCCCCCCCc1ccccc1)C(O)C(=O)O (stereo not given) | 91 to 92 °C
* CC(=O)C1=C(O)C(=C(C)Nc2cccc(S(N)(=O)=O)c2)C(=O)OC1=O | 237 °C
* CN(C)C(=O)c1cc(-c2ncc(C(F)(F)F)cc2Cl)ccc1Cl | 90 to 91 °C
* CCOC(=O)N1CCC2C(C1)c1cccc3c1N2CC(=O)N3 (stereo not given) | 167 to 168 °C
* CCOP(=O)(Cc1ccc(N)c2ccccc12)OCC | 73 to 74 °C
* CCCN1C(=O)C2CC(c3ccc(N(C)C)cc3)(C2)C1=O | 134 to 135 °C
* COC(=O)COc1ccc(SCc2cc(-c3ccc(C(F)(F)F)cc3)on2)c2c1CCCO2 | 112 to 113 °C

----------
quantity.kind: melting point

* CC(=O)N1CCCCc2ccc(/C=C/CN(C)C)cc21 | 87 to 88 °C
* CCc1nc2c(N)nc3cc(OCC(=O)N4CCOCC4)ccc3c2n1CCOc1ccccc1 | 208 to 209 °C
* Cc1sc(C(N)=O)c2c1-c1nn(Cc3ccccc3)cc1CC2 | 182 to 183 °C
* Cc1ccc(Cc2ccc(-c3ccccc3)cc2)cc1 | 87 °C
* CC(C)CCc1sc(NC(=O)c2cc([N+](=O)[O-])cn2C)nc1C(=O)O | 296 to 300 °C
* C[N+]([O-])=C(Cn1ccnc1)c1cccs1 | 162 to 164 °C
* CC(C)S(=O)(=O)c1ccc2c(c1)nc(CC1CCCC1)n2CC1CC1 | 137 °C
* COc1ccc(OCCCc2cn(-c3ccc(C(F)(F)F)cn3)nc2C(C)C)c(CC(=O)O)c1 | 143 to 144 °C
* Cc1cc2ccccc2nc1C(=O)O | 141 to 142 °C
* CCOC(=O)C(C)c1ccc(-c2cn3ccccc3n2)cc1 (configuration not stated) | 110 to 112 °C
* O=C(CN1CCN(c2ccccc2)CC1)Nc1ccc2c(c1NC(=O)c1ccccc1)C(=O)c1ccccc1C2=O | 225 to 226 °C
* O=C(C(=C1SCS1)c1ccncc1)c1ccc(Cl)cc1 | 149 to 151 °C
* CCCCC1(c2cccc(O)c2)CCCCN(C)C1=O (configuration not stated) | 138 to 142 °C
* C=CCc1c(OC)cc(C(=O)O)cc1OC | 56 to 57 °C
* CCCCc1nc(C(=O)OC)c(C(=O)OC)[nH]1 | 88 °C
* Fc1ccc(C(=S)N2CCCC(c3ccc(Cl)c(Cl)c3)=N2)cc1F | 135 to 136 °C
* CC(=O)NC(C)c1c[nH]c(C)n1 (configuration not stated) | 125 to 128 °C
* CCOC(=O)c1ccc(-c2nc(-c3ccccc3)ccc2Cl)cc1 | 81 to 82 °C
* COCCOc1c(S(C)(=O)=O)ccc(Cl)c1C | 83 to 85 °C
* O=C1OC(CCC#Cc2ccccc2)C(O)=C1O (configuration not stated) | 145 to 146 °C
* COC(=O)c1cc(O)c(O)c(S(=O)(=O)O)c1 | 116 °C
* O=c1nc(-c2ccncc2O)nc2n(C3CCCC3)[nH]c(C(F)(F)F)c1-2 | 205 to 206 °C
